These data points were gathered from patent US20080261994A1.

Recorded pIC50 values for a group of compounds are listed next.
Target: Recombinant Human MMP-13 (Homo sapiens)
Construct: purchased R&D systems 511-MM
Assay: MMP-13 inhibitory activity (MMP-13 specific fluorescent substrate with quencher)
Type: biochemical
Details: Experimental Example 3; read-out: IC50 MMP13
pIC50: −log10 of the molar value.
QUANTITY NAME: pIC50

1. C[C@]1(c2ccccc2)C[C@@]1(NS(=O)(=O)c1ccc(-c2ccc(C(F)(F)F)cc2)s1)C(=O)O ... > 7.00
2. CN(c1ccccc1)c1ccc(S(=O)(=O)N[C@@]2(C(=O)O)C[C@]2(C)c2ccccc2)s1 ... ≤ 6.00
3. C[C@]1(c2ccccc2)C[C@@]1(NS(=O)(=O)c1ccc(-c2ccc3nnn(O)c3c2)s1)C(=O)O ... ≤ 6.00
4. O=C(O)C1(NS(=O)(=O)c2ccc(-c3ccc(Cl)cc3)s2)CC1c1cccc(NS(=O)(=O)N2CCOCC2)c1 (stereo not shown) ... > 7.00
5. C[C@]1(c2ccccc2)C[C@@]1(NS(=O)(=O)c1ccc(-c2ccc3c(c2)OC(F)(F)O3)s1)C(=O)O ... > 6.00
6. O=C(O)[C@]1(NS(=O)(=O)c2ccc(-c3cc(C(F)(F)F)on3)s2)C[C@@H]1c1ccc(CCCO)cc1 ... > 7.00
7. O=C(O)C1(NS(=O)(=O)c2ccc(-c3cc(C(F)(F)F)on3)s2)CC1(CN1CCCCC1)c1ccccc1 (stereo not shown) ... ≤ 6.00
8. CC1[C@H](c2ccccc2)[C@]1(NS(=O)(=O)c1ccc(-c2nc3ccccc3[nH]2)s1)C(=O)O (stereo partly shown) ... > 7.00
9. CC1[C@H](c2ccccc2)[C@]1(NS(=O)(=O)N1CCN(C(=O)OCc2ccccc2)CC1)C(=O)O (stereo partly shown) ... ≤ 6.00
10. O=C(O)C1(NS(=O)(=O)c2ccc(-c3cc(C(F)(F)F)on3)s2)CC1c1cc(CO)on1 (stereo not shown) [Example 2-318] ... ≤ 5.00
11. CC(C)CCN1CCN(S(=O)(=O)N[C@@]2(C(=O)O)C(C)[C@@H]2c2ccccc2)CC1 (stereo partly shown) ... ≤ 6.00
12. CC1[C@H](c2ccccc2)[C@]1(NS(=O)(=O)c1ccc(-n2cc(Cl)cn2)nc1)C(=O)O (stereo partly shown) ... > 7.00
13. CC(C)OCCNC(=O)OCC1(c2ccccc2)CC1(NS(=O)(=O)c1ccc(-c2cc(C(F)(F)F)on2)s1)C(=O)O (stereo not shown) ... > 6.00
14. CC1[C@H](c2ccccc2)[C@]1(NS(=O)(=O)c1cn2cc(Cn3cc(Cl)cn3)nc2s1)C(=O)O (stereo partly shown) ... ≤ 6.00
15. CC1[C@H](c2ccccc2)[C@]1(NS(=O)(=O)c1ccc(-c2cc(C(F)F)no2)s1)C(=O)O (stereo partly shown) ... > 6.00
16. C[C@@H]1CN(CC2(c3ccccc3)CC2(NS(=O)(=O)c2ccc(-c3ccc(Cl)cc3)s2)C(=O)O)C[C@H](C)O1 (stereo partly shown) ... > 6.00
17. CC1C(c2ccccc2)C1(NS(=O)(=O)c1ccc(CCc2ccccc2)s1)C(=O)O (stereo not shown) ... ≤ 6.00
18. O=C1COCCN1CC1(c2ccccc2)CC1(NS(=O)(=O)c1ccc(-c2ccc(Cl)cc2)s1)C(=O)O (stereo not shown) ... > 6.00
19. C[C@]1(c2ccccc2)C[C@@]1(NS(=O)(=O)c1ccc(-n2cc(CO)cn2)s1)C(=O)O ... > 6.00
20. CC1[C@H](c2ccccc2)[C@]1(NS(=O)(=O)c1ccc(-c2cc(C(F)(F)F)on2)o1)C(=O)O (stereo partly shown) ... ≤ 6.00
21. C[C@]1(c2ccccc2)C[C@@]1(NS(=O)(=O)c1ccc(-c2ccc(Cl)c(CO)c2)s1)C(=O)O ... > 7.00
22. COc1cc(-c2ccc(S(=O)(=O)N[C@@]3(C(=O)O)C[C@]3(C)c3ccccc3)s2)ccc1Cl ... > 6.00
23. O=C(OCC1(c2ccccc2)CC1(NS(=O)(=O)c1ccc(-c2cc(C(F)(F)F)on2)s1)C(=O)O)N1CCCCC1 (stereo not shown) ... > 7.00
24. C[C@]1(c2ccccc2)C[C@@]1(NS(=O)(=O)c1ccc(-n2cc(C(F)(F)F)cn2)s1)C(=O)O ... > 6.00
25. CN1CCN(C(=O)Cc2ccc([C@@H]3C[C@]3(NS(=O)(=O)c3ccc(-c4cc(C(F)(F)F)on4)s3)C(=O)O)cc2)CC1 ... > 7.00
26. O=C(O)C1(NS(=O)(=O)c2ccc(-c3cc(C(F)(F)F)on3)s2)CC1(CN1CCOCC1)c1ccccc1 (stereo not shown) ... > 6.00
27. O=C(O)C1(NS(=O)(=O)c2ccc(-c3cc(C(F)(F)F)on3)s2)C2CCOc3ccccc3C21 (stereo not shown) ... > 7.00
28. CC1[C@H](c2ccccc2)[C@]1(NS(=O)(=O)N1CCCN(c2ccc(Cl)cn2)CC1)C(=O)O (stereo partly shown) ... ≤ 6.00
